Molecular target: SF9 affinity purified rat FPT (Rattus norvegicus, UniProt Q02293+Q04631)
Assay: PFT (FPT) inhibitory activity assay, radiolabeled farnesyl pyrophosphate and biotinyl peptide, streptavidin beads
Details: HEPES buffer pH 7.4, 30° C., 30 minutes; read-out: FTase IC50
measured_property: pIC50
Please express pIC50 as -log10 of the molar concentration.

Any idea what pIC50 was measured for C[C@@H](O)CNC(=O)c1ccc(SCc2c(O[C@H](Cn3ccnc3)c3ccccc3)ccc3c2CCCC3=O)cc1 ?
9.70

----------
pIC50 overview
Biological target: SF9 affinity purified rat FPT (Rattus norvegicus, UniProt Q02293+Q04631)
Assay: PFT (FPT) inhibitory activity assay, radiolabeled farnesyl pyrophosphate and biotinyl peptide, streptavidin beads
Details: HEPES buffer pH 7.4, 30° C., 30 minutes; read-out: FTase IC50
Method: The PFT or FPT inhibitory activity of compounds of the present invention were assayed in HEPES buffer (pH 7.4) containing 5 mM potassium phosphate and 20 μM ZnCl2. The solution also contained 5 mM DTT (dithiothreitol), 5 mM MgCl2, and 0.1% PEG 8000. Assays were performed in 96 well plates (Wallec) and employed solutions composed of varying concentrations of a compound of the present invention in 10% DMSO (dimethylsulfoxide). […]
Just so you know, pIC50 here is -log10 of the concentration in molar units; reply with that number alone.

compound	measured_property	assay_value
O=C1CCCc2c1ccc(O[C@H](Cn1ccnc1)c1ccccc1)c2CCc1ccsc1 [Compound 44a]	pIC50	9.06
O=C1CCCc2c1ccc(O[C@H](Cn1ccnc1)c1cccnc1)c2NC(=O)c1cnnc2ccccc12 [Compound 63f]	pIC50	7.89
C=CCNC(=O)c1cccc(S(=O)(=O)Cc2c(O[C@H](Cn3ccnc3)c3ccccc3)ccc3c2CCCC3=O)c1	pIC50	9.70
O=C(NCc1ccco1)c1ccc(SCc2c(O[C@H](Cn3ccnc3)c3ccccc3)ccc3c2CCCC3=O)cc1	pIC50	9.70
O=C1CCCc2c1ccc(O[C@H](Cn1ccnc1)c1ccccc1)c2COc1ccc2c(c1)OCO2 [Compound 92]	pIC50	8.40

Record request: pIC50 value, item COC(=O)c1ccccc1SCc1c(O[C@H](Cn2ccnc2)c2ccccc2)ccc2c1CCCC2=O
9.52

Can you share its pIC50? I mean this compound: O=C1CCCc2c1ccc(O[C@H](Cn1ccnc1)c1cccnc1)c2CS(=O)(=O)c1ccccn1 [Compound 63ba]
9.80
